assay: aggregation and purification amounts of deglycosylated antibodies, before and after φ; format: physicochemical; conditions: based on 100 ml culture
Each item that follows carries a reported Fraction1, Before φ.

| molecule | Fraction1, Before φ / mg |
| --- | --- |
| deglyco C1 IgG: deglycosylated clone 1 IgG; light chain CDR1 TGSSSNIGRCGVT (SEQ ID NO: 2), N32R/N33C/S34G (antibody, V domains shown) VH: EVQLVESGGGLVQPGGSLRLSCAVSGFTFSGYDMSWIRQAPGKGLEWVAGIYPDGGNTYYADSVKGRFTISRDDSKNTFYLQMNSLRAEDTAVYYCARGATWWVLGPFDYWGQGTLVTVSS VL: DIQLTQSPSSLSASVGDRVTITCTGSSSNIGRCGVTWYQQKPGKAPKLLIYADSHRPSGVPSRFSGSGSGTDFTLTISSLQPEDFATYYCGAWDDSLSGYVFGQGTKVEIKR | 0.011 |
| Deglyco-C2: deglycosylated clone 1 IgG; light chain CDR1 TGSSSNIGATAVT (SEQ ID NO: 3) (antibody, V domains shown) VH: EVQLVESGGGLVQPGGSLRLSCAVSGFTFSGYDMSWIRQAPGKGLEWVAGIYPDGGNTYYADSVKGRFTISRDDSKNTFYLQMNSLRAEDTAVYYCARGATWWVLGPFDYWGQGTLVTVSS VL: DIQLTQSPSSLSASVGDRVTITCTGSSSNIGATAVTWYQQKPGKAPKLLIYADSHRPSGVPSRFSGSGSGTDFTLTISSLQPEDFATYYCGAWDDSLSGYVFGQGTKVEIKR | 0.019 |
| Deglyco-C3: deglycosylated clone 1 IgG; light chain CDR1 TGSSSNIGWSNVT (SEQ ID NO: 4) (antibody, V domains shown) VH: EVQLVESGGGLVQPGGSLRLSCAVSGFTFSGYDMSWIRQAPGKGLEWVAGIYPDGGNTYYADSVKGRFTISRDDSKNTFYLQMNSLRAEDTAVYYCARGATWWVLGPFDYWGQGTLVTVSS VL: DIQLTQSPSSLSASVGDRVTITCTGSSSNIGWSNVTWYQQKPGKAPKLLIYADSHRPSGVPSRFSGSGSGTDFTLTISSLQPEDFATYYCGAWDDSLSGYVFGQGTKVEIKR | 0.014 |
